- target: JAK3 (Homo sapiens (Human), UniProt P52333)
- Sequence (P52333 whole entry): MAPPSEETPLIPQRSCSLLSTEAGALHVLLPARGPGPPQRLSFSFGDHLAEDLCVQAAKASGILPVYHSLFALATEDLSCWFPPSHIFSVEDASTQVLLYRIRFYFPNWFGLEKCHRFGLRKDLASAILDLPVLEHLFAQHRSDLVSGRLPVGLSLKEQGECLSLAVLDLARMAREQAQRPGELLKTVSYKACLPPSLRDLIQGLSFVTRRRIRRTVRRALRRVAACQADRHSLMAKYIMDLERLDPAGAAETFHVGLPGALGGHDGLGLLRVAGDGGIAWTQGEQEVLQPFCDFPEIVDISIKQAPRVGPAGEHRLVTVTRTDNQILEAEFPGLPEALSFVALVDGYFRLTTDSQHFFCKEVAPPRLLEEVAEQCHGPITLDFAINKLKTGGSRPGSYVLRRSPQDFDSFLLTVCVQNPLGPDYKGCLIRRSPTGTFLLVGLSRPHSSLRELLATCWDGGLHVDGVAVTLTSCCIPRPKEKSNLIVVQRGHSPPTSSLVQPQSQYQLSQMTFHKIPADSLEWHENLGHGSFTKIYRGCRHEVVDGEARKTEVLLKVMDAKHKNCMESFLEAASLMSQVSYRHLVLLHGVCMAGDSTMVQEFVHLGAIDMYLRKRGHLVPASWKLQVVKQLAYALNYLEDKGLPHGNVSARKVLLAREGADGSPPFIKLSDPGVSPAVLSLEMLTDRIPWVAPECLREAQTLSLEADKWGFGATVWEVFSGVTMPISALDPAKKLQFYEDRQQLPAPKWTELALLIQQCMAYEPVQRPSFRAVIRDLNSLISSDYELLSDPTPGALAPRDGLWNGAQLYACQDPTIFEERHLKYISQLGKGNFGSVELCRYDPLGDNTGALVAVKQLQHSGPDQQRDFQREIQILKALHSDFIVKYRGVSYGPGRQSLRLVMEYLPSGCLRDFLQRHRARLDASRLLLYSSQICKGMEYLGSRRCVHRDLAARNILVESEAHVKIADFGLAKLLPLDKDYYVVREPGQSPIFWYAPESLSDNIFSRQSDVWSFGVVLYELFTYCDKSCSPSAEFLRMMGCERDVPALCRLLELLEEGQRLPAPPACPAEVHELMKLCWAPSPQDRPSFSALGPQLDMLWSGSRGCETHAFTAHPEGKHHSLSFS
- assay.summary: Enzyme assay (Assay Example^a 1), JAK3
- Assay type: biochemical
- measurement.conditions: ATP 100 μM
IC50 values for the compounds below.
Supply the numeric figure in µM, leaving out any unit text.

compound	IC50, µM
c1cc2c(ncn3nnc([C@H]4CC[C@H](NC5CC5)CC4)c23)[nH]1 [392b]	0.61

Input: Look up IC50: O=S(=O)(C[C@H]1CC[C@H](c2nnn3cnc4[nH]ccc4c23)CC1)C1CC1 [compound 366]
Output: 0.28

Input: // lookup IC50 for OC(CN[C@H]1CC[C@H](c2nnn3cnc4[nH]ccc4c23)CC1)(c1cccnc1)C(F)(F)F (some centres unmarked) [385b]
Output: 0.18

Input: Report IC50 for N#CCNC(=O)C[C@H]1CC[C@@H](c2nnn3cnc4[nH]ccc4c23)CC1 [443a] please.
Output: 0.73

Input: Given the compound NC[C@H]1CC[C@H](c2nnn3cnc4[nH]ccc4c23)CC1 [compound 371] , what is its reported IC50?
Output: 0.39

Input: Find the recorded IC50 belonging to OCCNC[C@H]1CC[C@H](c2nnn3cnc4[nH]ccc4c23)CC1 [compound 272] and report it.
Output: 0.43

====

- target: JAK3 (Homo sapiens (Human), UniProt P52333)
- assay.summary: Enzyme assay (Assay Example^a 1), JAK3
- Type: biochemical
- measurement.conditions: ATP 100 μM; Table^a 154
Measured log10 IC50 of individual entries
Each number you see is log10 of IC50, and the unit inside the log is µM.

compound	endpoint.result
Cc1cnc(CNC[C@H]2CC[C@H](c3nnn4cnc5[nH]ccc5c34)CC2)cn1	-0.10
c1cc2c(ncn3nnc(C4CCC4)c23)[nH]1	-0.19
Fc1cnccc1CN1CCC(c2nnn3cnc4[nH]ccc4c23)CC1	-0.51

Input: Which value of log10 IC50 has been reported for O=C(NCCc1ccc(F)cc1)[C@H]1CC[C@H](c2nnn3cnc4[nH]ccc4c23)CC1 in the records?
Output: -0.44

Input: Sample Cc1ccc(CNC[C@H]2CC[C@H](c3nnn4cnc5[nH]ccc5c34)CC2)o1 — what was its log10 IC50?
Output: -0.55

Input: Form field: reported log10 IC50 of Clc1cc(CN2CCC(c3nnn4cnc5[nH]ccc5c34)CC2)ccn1
Output: -0.46

====

Reported IC50 values are given for each entry in this list.
- target: JAK1 (Homo sapiens (Human))
- assay.summary: Enzyme assay (Assay Example^a 1), JAK1
- Type: biochemical
- measurement.conditions: ATP 100 μM
Number only, in µM; omit the unit.

Please review the entries below; each comes with its answer.
compound	readout.units	IC50
Fc1ccc(NC[C@H]2CC[C@H](c3nnn4cnc5[nH]ccc5c34)CC2)cc1F [compound 249]	µM	0.017
c1cnc2cc(CN3CCC(c4nnn5cnc6[nH]ccc6c45)CC3)ccc2n1 [compound 218]	µM	0.028
O=S(=O)(C[C@H]1CC[C@H](c2nnn3cnc4[nH]ccc4c23)CC1)C1CC1 [compound 366]	µM	0.011
c1cc2c(ncn3nnc([C@H]4CC[C@H](CNC5CCC5)CC4)c23)[nH]1 [compound 283]	µM	0.014
Cc1ccccc1-c1nnn2cnc3[nH]ccc3c12 [compound 5]	µM	0.02
CCS(=O)(=O)N1CCN(C[C@H]2CC[C@H](c3nnn4cnc5[nH]ccc5c34)CC2)CC1 [compound 345]	µM	0.025
CCOC(=O)CC1CCC(c2nnn3cnc4[nH]ccc4c23)CC1 (stereo not drawn) [compound 438]	µM	0.017
FC(F)(F)CN(CC1CC1)[C@H]1CC[C@H](c2nnn3cnc4[nH]ccc4c23)CC1 [compound 413]	µM	0.02

Input: Query for JAK1 (Homo sapiens (Human)): what IC50 does the record show for CC(C)(O)C1CCN(C[C@H]2CC[C@H](c3nnn4cnc5[nH]ccc5c34)CC2)CC1 [compound 311] ?
Output: 0.025

Input: Tell me reported IC50 for Fc1ccc(C2(NC[C@H]3CC[C@H](c4nnn5cnc6[nH]ccc6c45)CC3)CCC2)cc1 [compound 324] , tested with JAK1 (Homo sapiens (Human)).
Output: 0.0034

Input: What measured IC50 is associated with OC12CC3CC(C1)CC(c1nnn4cnc5[nH]ccc5c14)(C3)C2 [compound 445] on JAK1 (Homo sapiens (Human))?
Output: 0.031

Input: Query IC50 on JAK1 (Homo sapiens (Human)) for CC(C)(C)OC(=O)N1CCC(CNC[C@H]2CC[C@H](c3nnn4cnc5[nH]ccc5c34)CC2)CC1 [compound 335]
Output: 0.029

Input: # get_value(readout= IC50, system= JAK1 (Homo sapiens (Human))) for O=C1OCCC1NC[C@H]1CC[C@H](c2nnn3cnc4[nH]ccc4c23)CC1 (stereo partly drawn) [compound 279]
Output: 0.0074

Input: # value lookup — system JAK1 (Homo sapiens (Human)), readout IC50, item COCCN(C)C[C@H]1CC[C@H](c2nnn3cnc4[nH]ccc4c23)CC1 [compound 325]
Output: 0.011

Input: Param readout= IC50; system= JAK1 (Homo sapiens (Human)); entry= N#Cc1ccc(NC[C@H]2CC[C@H](c3nnn4cnc5[nH]ccc5c34)CC2)c2ccccc12 [compound 248] ; returns value.
Output: 0.041

Input: Provide the documented IC50 with JAK1 (Homo sapiens (Human)) as the system for c1cc2c(ncn3nnc([C@H]4CC[C@@H](CNC5CC5)CC4)c23)[nH]1 [compound 406]
Output: 0.083

Input: Form field - read-out: IC50; system: JAK1 (Homo sapiens (Human)); submitted item: N#Cc1cc(CN2CCC(c3nnn4cnc5[nH]ccc5c34)CC2)ccc1F [compound 223]
Output: 0.015
